Measured values drawn from patent US11498899B2 for this set.

Below, each of the molecules is paired with its reported Barnyardgrass plant response rating (0 to 100 scale) value.
test system: barnyardgrass (Echinochloa crus-galli); test: Test B flooded paddy test, visual rating 0-100; settings: Flood, 250 g ai/ha, applied to paddy water, rated after 13 to 15 days
Provide a numeric answer; units are not to be included.

As a guide, the following entries are already answered.
- molecule: "CC1=[N+]([O-])C(C(=O)Nc2cccc(F)c2F)C(c2cc(F)ccc2C)C1 (racemic) [Compound 81]"
  reading: 25
- molecule: "CC1=[N+]([O-])C(C(=O)Nc2cccc(F)c2F)C(c2ccc(F)c(F)c2)C1 (racemic) [Compound 10]"
  reading: 85
- molecule: "COc1cc(C2CC(C)=[N+]([O-])C2C(=O)Nc2cccc(F)c2F)ccc1C(F)(F)F (centres unmarked) [Compound 100]"
  reading: 0
- molecule: "CC1=[N+]([O-])C(C(=O)Nc2cccc(F)c2F)C(c2ccc(Br)cc2)C1 (racemic) [Compound 20]"
  reading: 95
- molecule: "CC1=[N+]([O-])C(C(=O)Nc2cccc(F)c2F)C(c2cccc(F)c2)C1 (racemic) [Compound 8]"
  reading: 85

Request the reported Barnyardgrass plant response rating (0 to 100 scale) associated with CC1=[N+]([O-])C(C(=O)Nc2cccc(F)c2F)C(c2cc(C)n(Cc3ccc(Cl)cc3)c(=O)c2)C1 (racemic) [Compound 86]
0

Request the reported Barnyardgrass plant response rating (0 to 100 scale) associated with CC1=[N+]([O-])C(C(=O)Nc2cccc(F)c2F)C(c2cccc(C)n2)C1 (racemic) [Compound 49]
0

Request the reported Barnyardgrass plant response rating (0 to 100 scale) associated with CC1=[N+]([O-])[C@@H](C(=O)Nc2cccc(F)c2F)[C@H](c2cccc(Oc3ccc(F)cn3)c2)C1 [Compound 84]
0
